Tested on: K98450-129-R-PDC complex spheroid growth, percent test/control
Experiment: Anticancer human tumor K98450-129-R-PDC patient-derived colon adenocarcinoma cell line growth inhibition [RAS]
Settings: compound 0.01 µM; stronger effect = lower value
# viability, T/C annotations
ENDPOINT NAME: viability, T/C

> print(dat)
                                   compound   endpoint.name                  measured
1  C=CC(=O)Nc1cc(Nc2nccc(-c3cn(C)c4ccccc34)n2)c(OC)cc1N(C)CCN(C)C  viability, T/C  96.2% [middle of 4 runs]
2  Nc1ccn(C2OC(CO)C(O)C2(F)F)c(=O)n1 (centres undefined)  viability, T/C  96.2% [middle of 4 runs]
3  CC(C)n1nc(-c2ccc3oc(N)nc3c2)c2c(N)ncnc21  viability, T/C  96.8% [middle of 4 runs]
4  CCN1CCN(Cc2ccc(Nc3ncc(F)c(-c4cc(F)c5nc(C)n(C(C)C)c5c4)n3)nc2)CC1  viability, T/C  99.4% [middle of 4 runs]

---

Tested on: K98450-129-R-PDC complex spheroid growth, percent test/control
Assay: Anticancer human tumor K98450-129-R-PDC cell line growth inhibition [RAS]; active = viability on the fitted dose curve at most 10% of control; inactive = the rest;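 further: luminescence used as a proxy for viable cell amount; spheroids exposed to agents for seven days before the viability readout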
Conditions: second compound 0.0316 µM; first compound 3.16 µM
Source text: RAS pathway inhibitors in Combinations in Complex Spheroids A high-throughput screen of multi-cell type tumor spheroids was designed to identify active combinations of RAS pathway inhibitors and targeted small molecules. Complex spheroids include a stromal component modeled by human endothelial cells (HUVEC) and fibroblasts modeled by human mesenchymal stem cells (MSCs). […] Compounds. […] If the clinical Cmax for an agent had not been determined, the highest concentration tested was 10 microM. […]
Outcomes: Yes (active), No (inactive)

MOLECULE	GROUP
NC1c2ccccc2OC12CCN(c1cnc3c(N4CCCc5ncccc54)n[nH]c3n1)CC2 (stereo unspecified) + C=CC(=O)N1CCN(c2nc(OCC3CCCN3C)nc3c(F)c(-c4nc(N)cc(C)c4C(F)(F)F)c(Cl)cc23)C(C)C1	Yes
CC1(O)CCCC1n1c(=O)c(C(F)F)cc2cnc(NC3CCN(S(C)(=O)=O)CC3)nc21 (stereo unspecified) + C=CC(=O)N1CCN(c2nc(OCC3CCCN3C)nc3c(F)c(-c4nc(N)cc(C)c4C(F)(F)F)c(Cl)cc23)C(C)C1	No
CC1(O)CCCC1n1c(=O)c(C(F)F)cc2cnc(NC3CCN(S(C)(=O)=O)CC3)nc21 (stereo unspecified) + C#Cc1c(F)ccc2cc(O)cc(-c3ncc4c(N5CC6CCC(C5)N6)nc(OCC56CCCN5CC(F)C6)nc4c3F)c12	No
CC(Nc1ccc2c(c1)OCCn1cc(N3C(=O)OCC3C(F)F)nc1-2)C(N)=O (stereo unspecified) + C#Cc1c(F)ccc2cc(O)cc(-c3ncc4c(N5CC6CCC(C5)N6)nc(OCC56CCCN5CC(F)C6)nc4c3F)c12	No
CC(C)NCC(C(=O)N1CCN(c2ncnc3c2C(C)CC3O)CC1)c1ccc(Cl)cc1 (stereo unspecified) + C#Cc1c(F)ccc2cc(O)cc(-c3ncc4c(N5CC6CCC(C5)N6)nc(OCC56CCCN5CC(F)C6)nc4c3F)c12	No
CC(=O)OC12COC1CC(O)C1(C)C(=O)C(O)C3=C(C)C(OC(=O)C(O)C(NC(=O)OC(C)(C)C)c4ccccc4)CC(O)(C(OC(=O)c4ccccc4)C21)C3(C)C (stereo unspecified) + C#Cc1c(F)ccc2cc(O)cc(-c3ncc4c(N5CC6CCC(C5)N6)nc(OCC56CCCN5CC(F)C6)nc4c3F)c12	No
NC1c2ccccc2OC12CCN(c1cnc3c(N4CCCc5ncccc54)n[nH]c3n1)CC2 (stereo unspecified) + C#Cc1c(F)ccc2cc(O)cc(-c3ncc4c(N5CC6CCC(C5)N6)nc(OCC56CCCN5CC(F)C6)nc4c3F)c12	No
C[C@@H](NC(=O)c1ncnc(N)c1Cl)c1ncc(C(=O)Nc2cc(C(F)(F)F)c(Cl)cn2)s1 + C#Cc1c(F)ccc2cc(O)cc(-c3ncc4c(N5CC6CCC(C5)N6)nc(OCC56CCCN5CC(F)C6)nc4c3F)c12	No
Cc1nc(N2CCC3(CC2)COC(C)C3N)c(CO)nc1Sc1ccnc(N)c1Cl (stereo unspecified) + C=CC(=O)N1CCN(c2nc(OCC3CCCN3C)nc3c(F)c(-c4nc(N)cc(C)c4C(F)(F)F)c(Cl)cc23)C(C)C1	Yes
CC(=O)OC12COC1CC(O)C1(C)C(=O)C(O)C3=C(C)C(OC(=O)C(O)C(NC(=O)OC(C)(C)C)c4ccccc4)CC(O)(C(OC(=O)c4ccccc4)C21)C3(C)C (stereo unspecified) + C=CC(=O)N1CCN(c2nc(OCC3CCCN3C)nc3c(F)c(-c4nc(N)cc(C)c4C(F)(F)F)c(Cl)cc23)C(C)C1	No
CCC(CC)c1cc(NC2CCC(N)C2)n2nccc2n1 (stereo unspecified) + C=CC(=O)N1CCN(c2nc(OCC3CCCN3C)nc3c(F)c(-c4nc(N)cc(C)c4C(F)(F)F)c(Cl)cc23)C(C)C1	No
C[C@@H](NC(=O)c1ncnc(N)c1Cl)c1ncc(C(=O)Nc2cc(C(F)(F)F)c(Cl)cn2)s1 + C=CC(=O)N1CCN(c2nc(OCC3CCCN3C)nc3c(F)c(-c4nc(N)cc(C)c4C(F)(F)F)c(Cl)cc23)C(C)C1	No
CCC(CC)c1cc(NC2CCC(N)C2)n2nccc2n1 (stereo unspecified) + C#Cc1c(F)ccc2cc(O)cc(-c3ncc4c(N5CC6CCC(C5)N6)nc(OCC56CCCN5CC(F)C6)nc4c3F)c12	No
CC(C)NCC(C(=O)N1CCN(c2ncnc3c2C(C)CC3O)CC1)c1ccc(Cl)cc1 (stereo unspecified) + C=CC(=O)N1CCN(c2nc(OCC3CCCN3C)nc3c(F)c(-c4nc(N)cc(C)c4C(F)(F)F)c(Cl)cc23)C(C)C1	No
Cc1nc(N2CCC3(CC2)COC(C)C3N)c(CO)nc1Sc1ccnc(N)c1Cl (stereo unspecified) + C#Cc1c(F)ccc2cc(O)cc(-c3ncc4c(N5CC6CCC(C5)N6)nc(OCC56CCCN5CC(F)C6)nc4c3F)c12	No
CC(Nc1ccc2c(c1)OCCn1cc(N3C(=O)OCC3C(F)F)nc1-2)C(N)=O (stereo unspecified) + C=CC(=O)N1CCN(c2nc(OCC3CCCN3C)nc3c(F)c(-c4nc(N)cc(C)c4C(F)(F)F)c(Cl)cc23)C(C)C1	No
